tested on: anesthetized rats (evoked responses of anterior tibial muscle); experiment: In vivo neuromuscular block and cardiovascular side effects, anesthetized rat (Example 8, Table 3); details: rat, in vivo
measure: ΔBP (change in arterial blood pressure) (%)
// units = %; emit number, no label

1. CCC(=O)Oc1ccc(C[N+]2(C)C3CCCC2CC(OC(=O)CCCCC(=O)OC2CC4CCCC(C2)[N+]4(C)Cc2ccc(OC(=O)CC)c(OC(=O)CC)c2)C3)cc1OC(=O)CC.[Br-].[Br-] (centres unmarked): −4

Quick note, ΔBP (change in arterial blood pressure) for CC(=O)Oc1ccc(C[N+]2(C)C3CCCC2CC(OC(=O)CCCCCCC(=O)OC2CC4CCCC(C2)[N+]4(C)Cc2ccc(OC(C)=O)c(OC(C)=O)c2)C3)cc1OC(C)=O.[Br-].[Br-] (centres unmarked) landed at 0

Quick note, ΔBP (change in arterial blood pressure) for CCC(=O)Oc1ccc(C[N+]2(C)C3CCCC2CC(OC(=O)CCCC(=O)OC2CC4CCCC(C2)[N+]4(C)Cc2ccc(OC(=O)CC)c(OC(=O)CC)c2)C3)cc1OC(=O)CC.[Br-].[Br-] (centres unmarked) landed at 0

Quick note, ΔBP (change in arterial blood pressure) for COc1cc(C[N+]23CCC(CC2)C(OC(=O)[C@@H]2[C@@H](C(=O)OC4C[N+]5(Cc6ccc(OC(C)=O)c(OC)c6)CCC4CC5)[C@H]4C=C[C@@H]2C4)C3)ccc1OC(C)=O.[Br-].[Br-] (relative stereo) landed at −10

Quick note, ΔBP (change in arterial blood pressure) for CC(=O)Oc1ccc(C[N+]2(C)C3CCCC2CC(OC(=O)CCCCC(=O)OC2CC4CCCC(C2)[N+]4(C)Cc2ccc(OC(C)=O)c(OC(C)=O)c2)C3)cc1OC(C)=O.[Br-].[Br-] (centres unmarked) landed at 0
